Target: Retinoic acid receptor alpha (Homo sapiens)
Sequence (P10276 whole entry): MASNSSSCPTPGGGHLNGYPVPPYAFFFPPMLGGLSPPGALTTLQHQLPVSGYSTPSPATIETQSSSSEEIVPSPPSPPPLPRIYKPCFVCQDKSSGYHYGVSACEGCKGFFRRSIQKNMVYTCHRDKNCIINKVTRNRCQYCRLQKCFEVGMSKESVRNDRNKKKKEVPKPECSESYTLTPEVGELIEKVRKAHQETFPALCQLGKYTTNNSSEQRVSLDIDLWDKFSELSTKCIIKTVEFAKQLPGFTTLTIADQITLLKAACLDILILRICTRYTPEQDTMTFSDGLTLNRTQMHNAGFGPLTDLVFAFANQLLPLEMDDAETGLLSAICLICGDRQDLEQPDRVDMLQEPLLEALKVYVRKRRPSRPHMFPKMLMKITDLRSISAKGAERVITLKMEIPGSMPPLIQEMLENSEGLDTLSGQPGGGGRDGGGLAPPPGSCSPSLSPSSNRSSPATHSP
Assay: Transcriptional activation in CV-1 cells expressing RAR-alpha receptor
Format: cell-based
QUANTITY MEASURED: EC50 (nM)

a. C/C(=C\c1ccc(C(=O)O)cc1)c1ccc2c(c1)C(C)(C)CS2
b. COC(=O)c1ccc(/C=C(\C)c2ccc3c(c2)C(C)(C)CCO3)cc1
c. COC(=O)c1ccc(/C=C(\C)c2ccc3c(c2)C(C)(C)CCS3)cc1
IN: Sort entries by EC50 from minimum to maximum value. Labels, requested order.
OUT: a, c, b
(a: 420 nM, c: 620 nM, b: 1100 nM)

A. CC(/C=C/C=C(\C)c1ccc2c(c1)C(C)(C)CCS2)=C\C(=O)O
B. CC(/C=C/C=C(\C)c1ccc2c(c1)C(C)(C)CO2)=C\C(=O)O
IN: // select label with min value of measured EC50 from [ A , B ] Respond using the label that marks the chosen record.
OUT: B
